Where these numbers come from: ChEMBL document CHEMBL3988442

- SUBJECT OF TEST: Tyrosyl-tRNA synthetase, putative (Trypanosoma cruzi (strain CL Brener)) (UniProt Q4DSP6)
- Sequence (whole entry): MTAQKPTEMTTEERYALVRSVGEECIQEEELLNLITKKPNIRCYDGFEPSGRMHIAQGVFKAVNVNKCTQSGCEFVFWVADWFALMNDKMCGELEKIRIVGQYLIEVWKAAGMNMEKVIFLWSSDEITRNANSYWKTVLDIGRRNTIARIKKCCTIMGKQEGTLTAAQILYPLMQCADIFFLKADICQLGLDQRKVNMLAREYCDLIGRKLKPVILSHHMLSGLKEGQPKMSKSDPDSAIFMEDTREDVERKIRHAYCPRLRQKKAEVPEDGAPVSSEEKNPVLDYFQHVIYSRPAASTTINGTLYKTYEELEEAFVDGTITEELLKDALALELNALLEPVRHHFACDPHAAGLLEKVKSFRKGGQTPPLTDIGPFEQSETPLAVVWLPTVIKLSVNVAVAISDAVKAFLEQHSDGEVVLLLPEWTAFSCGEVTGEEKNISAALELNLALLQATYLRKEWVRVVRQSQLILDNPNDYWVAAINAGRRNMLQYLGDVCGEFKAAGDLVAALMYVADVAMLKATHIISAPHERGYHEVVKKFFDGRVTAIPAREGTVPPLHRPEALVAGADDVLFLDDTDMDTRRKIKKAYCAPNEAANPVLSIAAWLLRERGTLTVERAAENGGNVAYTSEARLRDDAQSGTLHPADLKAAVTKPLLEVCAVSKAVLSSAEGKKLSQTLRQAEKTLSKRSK
- EXPERIMENT SUMMARY: Trypanosoma cruzi tyrosyl tRNA synthetase (TcYRS) _High Tyrosine SOP; also: in the data most compounds retested in dose-response had high values
- Format: functional
- Set-up: scale not given: direction of the effect not stated beside the values
- CONDITION NOTES: 30 µM
Recorded Percent Effect values for a group of compounds are listed next.
METRIC NAME: Percent Effect (%)

• O=C(NCC1CC1)C1CN(C(=O)c2cccc(Cl)c2)CC12CCOCC2 (configuration not stated) = 2.12
• Cc1nc(CN2CCOC(CNc3cccnn3)C2)oc1C (configuration not stated) = 2.46
• Cc1nc(C)n(C2CCCN(C(=O)CCc3ccncc3)C2)n1 (configuration not stated) = 12.9
• Oc1nc(N2CCOCC2)nc2c1CCN(Cc1cccnc1)CC2 = 4.3
• Cc1ccc(-c2cc(N)c(=O)n(CC(=O)NC3CCCCC3)n2)s1 = 1.07
• CC(C)(C)c1ncc(C(=O)NCCS(N)(=O)=O)s1 = 6.4
• O=C(COCC1CC1)N1CCCC(n2cncn2)C1 (configuration not stated) = 1.48
• CN(c1ccncn1)C1CC2(CCN(C(=O)CCc3cccs3)C2)C1 (configuration not stated) = 5.38
• CC(=O)Nc1nc(C2CCN(CC(N)=O)CC2)cs1 = 0
• CC(c1ccc(F)c(F)c1)N1CCN(Cc2nccn2C)CC1 (configuration not stated) = -5.83
• Cn1ccnc1CC1CCCN(C(=O)Nc2cccn(C)c2=O)C1 (configuration not stated) = 8.91
• N#Cc1ncn(CCC(=O)Nc2c(Cl)cccc2Cl)n1 = 11.5

----------
Recorded Percent Effect values for a group of molecules are listed next.
- System: Trypanosoma cruzi
- EXPERIMENT SUMMARY: Trypanosoma cruzi phosphomannomutase and mannose-1-phosphate guanylyltransferase assay
- Format: functional
- Set-up: scale not given: direction of the effect not stated beside the values
- CONDITION NOTES: 10 µM
METRIC NAME: Percent Effect (%)

- CCc1nnc(CN(C)c2nc(C3CCCC3)nc3c2cnn3C)o1: 3.79
- O=C(CSC1=NS(=O)(=O)c2cc(F)ccc2N1)c1ccc(Cl)cc1: -5.42
- O=C(c1cccs1)N1CCC2(C1)c1ccccc1S(=O)(=O)N2CC1CC1 (centres undefined): -0.197
- CCC1=N[C@@]2(CC[C@@H]3CN(S(=O)(=O)N(C)C)C[C@@H]32)C(=O)N1CC(C)C: -2.07
- CC(Oc1ccccc1C(F)(F)F)C(=O)NCCC(=O)N(C)C (centres undefined): 2.93
- CS(=O)(=O)N1CC[C@H]2[C@H](C[C@@H](Cn3cncn3)N2CC2CC2)C1: -1.87
- CNc1cc(C)nc(C2CN(Cc3cc[nH]n3)CCO2)c1 (centres undefined): -7.51
- COc1ccc(-n2ccc(C(=O)NCCN3CCCCC3C)n2)cc1 (centres undefined): 4.62
- Cc1cnn(CC2CN(Cc3nnc(C4CC4)o3)CCO2)c1 (centres undefined): -4.18
- CSCC(=O)N1CCCC1c1noc(C2CC2)n1 (centres undefined): 4.97
- CC(C)Oc1ncnc2c1CCN(Cc1cccs1)CC2: -0.193
- O=C(NCc1ccccc1)c1nnc2ccc(N3CCOCC3)cc2n1: -3.73
- Cc1nc(Nc2ncccn2)cc(C2CCCN2CC(C)C)n1 (centres undefined): -1.38
- Cc1nocc1C(=O)N1CCc2c(CN(C)C(C)C)n[nH]c2C1: 3.77
- Cc1nc(-c2ccc(Cl)s2)sc1C(=O)NCCS(N)(=O)=O: -1.95
- Cc1nc(N2CCN(C(=O)c3ccccc3)CC2)c2c(n1)c(C)nn2C: -0.393
- O=C1OCCN1CCOc1nc(-c2ccccc2Cl)no1: 4.7
- Cc1cc(NC(=O)CN2CCN(c3nccs3)C(C)C2)n(C)n1 (centres undefined): 0.279
- Cc1ncccc1CNCC1CCN(CC(O)c2ccccc2)CC1 (centres undefined): -0.308
- CCC(O)CN1CCN(C(=O)c2cccn2Cc2cccs2)CC1 (centres undefined): -2.17
- CC(OCC(F)(F)F)C(=O)Nc1ccc(-n2cncn2)nc1 (centres undefined): -1.27
- COCCc1noc(CNC2CCCN(c3cccnn3)C2)n1 (centres undefined): -3.25
- CNc1nc(CNC(=O)Nc2ccccc2SC)cs1: -2.07
- Cc1noc(Cl)c1CC(=O)N1CCCC(n2cccn2)C1 (centres undefined): -0.0934
